Entry source: ChEMBL document CHEMBL1201862

test system: BT-549; experiment: NCI tumour cell line growth inhibition, 48 h
The source made the active and inactive calls. Rule as the data show it: active = GI50 up to about 1.1 µM and inactive = higher.
Recorded GI50, one value per entry.

In the examples that follow, each entry is paired with its recorded GI50.
[[record]]
compound = "CC(=O)Oc1c(OC(C)C)c(C)c(O[Si](C(C)C)(C(C)C)C(C)C)c2[nH]c3ccccc3c12"
assay_endpoint = "GI50"
test_result = "> 100 µM (inactive)"

[[record]]
compound = "CC(C)(C)c1ccc(O)c(Br)c1"
assay_endpoint = "GI50"
test_result = "> 100 µM (inactive)"

[[record]]
compound = "O=C1CN2Cc3cc(N4CCOCC4)ccc3N=C2N1"
assay_endpoint = "GI50"
test_result = "> 100 µM (inactive)"

[[record]]
compound = "c1ccc(C2=NCCN2)c(C2=NCCN2)c1"
assay_endpoint = "GI50"
test_result = "> 100 µM (inactive)"


Please find the next compound below.
Q: Give reported GI50 value for COC(=O)c1ccc2cc(O)ccc2c1
A: 79.6 µM (inactive)
